# tgt: Human baculovirus-expressed Janus kinase (JAK) 2 (Homo sapiens, UniProt O60674)
# Construct: All four purified enzymes contain only the catalytic domain; His-tag (N)
# Sequence (O60674 849-1124 limits assumed): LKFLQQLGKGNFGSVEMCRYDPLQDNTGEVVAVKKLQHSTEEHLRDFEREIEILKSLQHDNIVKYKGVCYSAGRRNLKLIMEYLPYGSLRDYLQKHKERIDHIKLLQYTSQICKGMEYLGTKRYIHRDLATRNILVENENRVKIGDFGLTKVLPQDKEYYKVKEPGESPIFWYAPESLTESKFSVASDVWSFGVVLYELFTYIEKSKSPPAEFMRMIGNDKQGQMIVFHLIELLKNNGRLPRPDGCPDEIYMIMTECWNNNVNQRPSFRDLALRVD
# method.notes: JAK2 kinase assay (HTRF)
# run.parameters: catalytic domain, ATP at Km (4 μM), 20 min
observation.type: EC50

Request: What value of EC50 has been recorded for this entry: `CNc1ncc2nc([C@@H](C)O)n([C@H]3CC[C@H](CC#N)CC3)c2n1`
Response: 157 nM

Request: Which EC50 is listed for `[2H]C([2H])([2H])Nc1ncc2nc([C@@H](C)O)n([C@H]3CC[C@H](CC#N)CC3)c2n1` ?
Response: 129 nM

Request: Requested read-out: EC50. Entry: CNc1ncc2nc(C(C)O)n([C@H]3CC[C@H](CC#N)CC3)c2n1 (mixture of isomers)
Response: 274 nM

Origin of values: patent US20210269447A1
